Collected normalized growth values appear next to each entry.
Test: chemical genetic growth profiling, strain panel (AID 1159580);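 further: tested at 20 µM; growth read once vehicle control cultures reached saturation at 30 °C; 1 = growth at the plate median or of vehicle wells; lower values mean less growth of the strain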
Settings: S. cerevisiae deletion strains, growth OD, locus YNL248C, strain rpa49, active compounds read low
About 2,000 (36%) of roughly 5,500 compounds were called active. Roughly 18% stayed inconclusive and do not appear here. This is one part of the list.
Give the value as a plain number.

Completed entries (count: 3):
- compound: "COc1cc(OC)c2c(c1Cl)OC1(C2=O)C(O)=CC(=O)CC1C (stereo not given)"
  normalized growth: 1.01
- compound: "Nc1ncnc2c1ncn2[C@@H]1O[C@H](CO)[C@@H](O)[C@@H]1O"
  normalized growth: 1.01
- compound: "CC(=O)OCC(=O)[C@@]1(O)CCC2C3CCC4=CC(=O)CC[C@]4(C)[C@@]3(F)[C@@H](O)C[C@@]21C (stereo not given in full)"
  normalized growth: 1.02

What normalized growth value was documented for this compound, OC[C@@H](O)C(O[C@@H]1O[C@H](CO)[C@H](O)[C@H](O)[C@H]1O)[C@H](O)[C@@H](O)CO (stereo not given in full) ?
0.991

====

Experiment: chemical genetic growth profiling, strain panel (AID 1159580);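 further: tested at 20 µM; growth read once vehicle control cultures reached saturation at 30 °C; 1 = growth at the plate median or of vehicle wells; lower values mean less growth of the strain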
Conditions: S. cerevisiae deletion strains, growth OD, locus YGL167C, strain pmr1, active compounds read low
Out of some 5,500 compounds screened, about 2,000 (36%) were called active. Inconclusive results (about 18%) are left out. This is one part of the list.
Collected normalized growth values appear next to each entry.

- compound: "CC(=O)O[C@@H]1CC2C(C)(C)[C@H](O)C[C@H](O)[C@]2(C)C2CC[C@@]3(C)C(=CC(=O)O[C@H]3c3ccoc3)[C@@]21C (stereo not given in full)"
  recorded-endpoint: "normalized growth"
  data-value: "0.991 (inactive)"
- compound: "O=c1ccc2cc(O[C@@H]3O[C@H](CO)[C@@H](O)[C@H](O)[C@H]3O)c(O)cc2o1"
  recorded-endpoint: "normalized growth"
  data-value: "0.964 (inactive)"
- compound: "CC(=O)c1ccc2c(c1)N(CCCN(C)C)c1ccccc1S2"
  recorded-endpoint: "normalized growth"
  data-value: "0.987 (inactive)"
- compound: "COC(=O)C[C@H]1C(C)(C)[C@@H](OC(C)=O)[C@@H]2CC3C4CC(=O)O[C@@H](c5ccoc5)[C@]4(C)CCC3[C@@]1(C)C2=O (stereo not given in full)"
  recorded-endpoint: "normalized growth"
  data-value: "1.02 (inactive)"
- compound: "COc1ccc2ccc(=O)oc2c1CC=C(C)C"
  recorded-endpoint: "normalized growth"
  data-value: "0.908 (active)"
- compound: "O=c1[nH]cnc2nc[nH]c12"
  recorded-endpoint: "normalized growth"
  data-value: "1.02 (inactive)"
- compound: "COc1cc(O)c(C(C)=O)c(OC)c1"
  recorded-endpoint: "normalized growth"
  data-value: "1.01 (inactive)"
- compound: "COc1cc(OC)c(C(C)=O)c(O)c1C"
  recorded-endpoint: "normalized growth"
  data-value: "0.945 (inactive)"

What normalized growth value was documented for this compound, Nc1ncnc2nc[nH]c12 ?
0.979 (inactive)

What normalized growth value was documented for this compound, CC(C)=CCOc1cc2oc(=O)ccc2cc1O ?
0.939 (inactive)

What normalized growth value was documented for this compound, CC(C)=CCC/C(C)=C/COc1ccc2ccc(=O)oc2c1 ?
0.985 (inactive)

What normalized growth value was documented for this compound, CCCC(=O)Nc1ncnc2c1ncn2C1O[C@@H]2COP(=O)(O)O[C@H]2[C@H]1OC(=O)CCC (stereo not given in full) ?
0.981 (inactive)

What normalized growth value was documented for this compound, COc1cc(O)c(C(=O)O)c(O)c1 ?
0.989 (inactive)

The reported numbers originate from PubChem BioAssay AID1159580.
